Origin of values: patent US6767991B1

Target: HCV NS3 protease type 1b/NS4A cofactor peptide (Hepatitis C virus genotype 1b)
Construct: recombinant HCV NS3 protease (amino acid 1027 to 1206) was cloned in the pET11d bacterial expression vector; made in house; host or cells: E. coli BL21(DE3)pLysS
Assay: Recombinant HCV NS3 protease/NS4A cofactor peptide radiometric assay
Assay type: biochemical, HCV genotype 1b
Details: Table 1, unmarked values: NS3 protease/NS4A cofactor peptide radiometric assay; read-out: IC50
*1 amine or outer side, *2 acyl side, *3 side chain or, on linkers, in order; H or OH if unused. Where a SMILES comes first, the peptide text is derived from it. [ ]: non-standard residue; d: D form. The star is where a group is joined. Chg = N[C@H](C(=O)O)C1CCCCC1; Suc = O=C(CCC(=O)[*:2])[*:1]; Nva = CCC[C@H](N)C(=O)O; Ac3c = NC1(C(=O)O)CC1; OBn = c1ccc(CO*)cc1
MEASURED_ATTRIBUTE: IC50 (µM)
Give just the number in µM; leave the unit off.

IN: For CCC[C@H](NC(=O)[C@@H]1CCCN1C(=O)[C@@H](NC(=O)[C@@H](NC(=O)[C@@H](CCC(=O)O)NC(=O)[C@H](CC(=O)O)NC(C)=O)[C@@H](C)CC)C(C)C)C(=O)O [compound 128] (Ac-D[dE]IVP[Nva]-OH) , what is its reported IC50?
OUT: 7.4

IN: Follow-up entry: CC(=O)N[C@@H](CC(=O)O)C(=O)N[C@@H](CCC(=O)O)C(=O)N[C@H](C(=O)N[C@H](C(=O)N[C@@H](CCC(=O)OCc1ccccc1)C(=O)NC1(C(=O)O)CC1)C(C)C)C1CCCCC1 [compound 133] (Ac-DE[Chg]VE(OBn)[Ac3c]-OH)
OUT: 39

IN: Can you handle CCC[C@H](NC(=O)[C@@H]1CCCN1C(=O)[C@@H](NC(=O)[C@@H](NC(=O)[C@H](CC(=O)O)NC(=O)CCC(=O)O)[C@@H](C)CC)C(C)C)C(=O)O [compound 130] (Suc-DIVP[Nva]-OH) next?
OUT: 123

IN: Also, CC[C@H](C)[C@H](NC(=O)[C@H](CC(=O)O)NC(=O)CCC(=O)O)C(=O)N[C@H](C(=O)N1CCC[C@H]1C(=O)N[C@@H](CS)C(=O)O)C(C)C [compound 103] (Suc-DIVPC-OH) please.
OUT: 26

* * *

Target: HCV NS3 protease type 1b/NS4A cofactor peptide (Hepatitis C virus genotype 1b, UniProt P26663)
Construct: recombinant HCV NS3 protease (amino acid 1027 to 1206) was cloned in the pET11d bacterial expression vector; made in house; host or cells: E. coli BL21(DE3)pLysS
Sequence (P26663 1027-1206, other chains not shown): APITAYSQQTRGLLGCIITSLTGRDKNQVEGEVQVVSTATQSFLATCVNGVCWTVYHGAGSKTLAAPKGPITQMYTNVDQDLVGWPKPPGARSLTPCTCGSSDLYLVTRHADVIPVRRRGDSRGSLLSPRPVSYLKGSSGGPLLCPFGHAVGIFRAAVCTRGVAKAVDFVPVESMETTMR
Test: Recombinant HCV NS3 protease/NS4A cofactor peptide radiometric assay
Type: biochemical, HCV genotype 1b
Settings: Table 2, unmarked values: NS3 protease/NS4A cofactor peptide radiometric assay; read-out: IC50
*1 amine or outer side, *2 acyl side, *3 side chain or, on linkers, in order; H or OH if unused. Where a SMILES comes first, the peptide text is derived from it. [ ]: non-standard residue; d: D form. The star is where a group is joined. CH2(1-naphthyl) = c1ccc2c(C*)cccc2c1; Glutaryl = O=C(CCCC(=O)[*:2])[*:1]; Hyp = O=C(O)[C@@H]1C[C@@H](O)CN1; Chg = N[C@H](C(=O)O)C1CCCCC1; Nva = CCC[C@H](N)C(=O)O; X1 = c1ccc2cc(C*)ccc2c1; Ac3c = NC1(C(=O)O)CC1; X2 = Brc1cccc(C*)c1; X3 = CC(=O)OCC(=O)*; X6 = Ic1cccc(C*)c1; Bn = c1ccc(C*)cc1
Kindly supply the reported pIC50 values for the records listed here.
# pIC50: negative log10 of molar concentration; output just the value

IN: // lookup pIC50 for CC(=O)N[C@@H](CC(=O)O)C(=O)N[C@H](CCC(=O)O)C(=O)N[C@H](C(=O)N[C@H](C(=O)N1C[C@H](OCc2cccc3ccccc23)C[C@H]1C(=O)NC1(C(=O)O)CC1)C(C)C)C1CCCCC1 [compound 215] (Ac-D[dE][Chg]V[Hyp](CH2(1-naphthyl))[Ac3c]-OH)
OUT: 7.85

IN: Follow-up entry: CCC[C@H](NC(=O)[C@@H]1C[C@@H](OCc2cccc3ccccc23)CN1C(=O)[C@@H](NC(=O)[C@@H](NC(C)=O)C1CCCCC1)C(C)C)C(=O)O [compound 252] (Ac-[Chg]V[Hyp](CH2(1-naphthyl))[Nva]-OH)
OUT: 4.70

IN: Same lookup for CC(=O)N[C@H](C(=O)N[C@H](C(=O)N1C[C@H](OCc2cccc(Br)c2)C[C@H]1C(=O)NC1(C(=O)O)CC1)C(C)C)C1CCCCC1 [compound 268] (Ac-[Chg]V[Hyp](X2)[Ac3c]-OH) , please.
OUT: 4.62

IN: Repeat for the following compound: CC[C@H](C)[C@H](NC(=O)[C@@H](CCC(=O)O)NC(=O)[C@H](CC(=O)O)NC(C)=O)C(=O)N[C@H](C(=O)N1C[C@H](OCc2ccccc2)C[C@H]1C(=O)N[C@@H](CS)C(=O)O)C(C)C [compound 260] (Ac-D[dE]IV[Hyp](Bn)C-OH)
OUT: 6.74

IN: Subsequent entry: CC(=O)OCC(=O)N[C@H](C(=O)N[C@H](C(=O)N1C[C@H](OCc2cccc3ccccc23)C[C@H]1C(=O)NC1(C(=O)O)CC1)C1CCCCC1)C1CCCCC1 [compound 232] (X3-[Chg][Chg][Hyp](CH2(1-naphthyl))[Ac3c]-OH)
OUT: 5.85

IN: Now consider CC(C)[C@H](NC(=O)[C@@H](NC(=O)CCCC(=O)O)C1CCCCC1)C(=O)N1C[C@H](OCc2cccc3ccccc23)C[C@H]1C(=O)NC1(C(=O)O)CC1 [compound 226] (Glutaryl-[Chg]V[Hyp](CH2(1-naphthyl))[Ac3c]-OH) .
OUT: 6.12

IN: Would you kindly repeat that for CC[C@H](C)[C@H](NC(=O)[C@H](CCC(=O)O)NC(=O)[C@H](CC(=O)O)NC(C)=O)C(=O)N[C@H](C(=O)N1C[C@H](OCc2cccc(I)c2)C[C@H]1C(=O)NC1(C(=O)O)CC1)C(C)C [compound 233] (Ac-DEIV[Hyp](X6)[Ac3c]-OH) ?
OUT: 6.85

IN: Now this one: CCC[C@H](NC(=O)[C@@H]1C[C@@H](OCc2ccc3ccccc3c2)CN1C(=O)[C@@H](NC(=O)[C@@H](NC(=O)[C@@H](CCC(=O)O)NC(=O)[C@H](CC(=O)O)NC(C)=O)C1CCCCC1)C(C)C)C(=O)O [compound 214] (Ac-D[dE][Chg]V[Hyp](X1)[Nva]-OH)
OUT: 7.55

* * *

Target: HCV NS3 protease type 1b/NS4A cofactor peptide (Hepatitis C virus genotype 1b, UniProt P26663)
Construct: recombinant HCV NS3 protease (amino acid 1027 to 1206) was cloned in the pET11d bacterial expression vector; made in house; host or cells: E. coli BL21(DE3)pLysS
Assay: Recombinant HCV NS3 protease/NS4A cofactor peptide radiometric assay
Assay type: biochemical, HCV genotype 1b
Details: Table 1, unmarked values: NS3 protease/NS4A cofactor peptide radiometric assay; read-out: IC50
Where a SMILES comes first, the peptide text is derived from it. [ ]: non-standard residue; d: D form. The star is where a group is joined. Hyp = O=C(O)[C@@H]1C[C@@H](O)CN1; Chg = N[C@H](C(=O)O)C1CCCCC1; Ac3c = NC1(C(=O)O)CC1; Bn = c1ccc(C*)cc1
MEASURED_ATTRIBUTE: pIC50
Value format note: pIC50 is -log10 of concentration (mol/L); just state the number.

IN: Reported pIC50, molecule CC(=O)N[C@@H](CC(=O)O)C(=O)N[C@H](CCC(=O)O)C(=O)N[C@H](C(=O)N[C@@H](CCC(=O)O)C(=O)N[C@@H](CCC(=O)O)C(=O)NC1(C(=O)O)CC1)C1CCCCC1 [compound 132] (Ac-D[dE][Chg]EE[Ac3c]-OH) : ____
OUT: 4.44

IN: Please answer likewise for CC[C@H](C)[C@H](NC(=O)[C@H](CC(=O)O)NC(=O)[C@H](CC(=O)O)NC(C)=O)C(=O)N[C@H](C(=O)N1C[C@H](OCc2ccccc2)C[C@H]1C(=O)N[C@@H](CS)C(=O)O)C(C)C [compound 121] (Ac-DDIV[Hyp](Bn)C-OH)
OUT: 5.77

IN: Do the same for CC(=O)N[C@@H](CC(=O)O)C(=O)N[C@@H](CCC(=O)O)C(=O)N[C@H](C(=O)N[C@@H](CCC(=O)O)C(=O)N[C@@H](CCC(=O)O)C(=O)N[C@@H](CS)C(=O)O)C1CCCCC1 [compound 131] (Ac-DE[Chg]EEC-OH) please
OUT: 4.62
